Entries and their melting point

compound=C=CCSc1nnc(OC)c2ccccc12 result="32 to 34 °C"
compound=N#Cc1ccc(-c2cc(N(Cc3ccc(O)cc3)n3cnnc3)ccc2C#N)cc1 result="221 to 223 °C"

Prompt line: Indicate its recorded melting point; the compound in question is CC(=O)Oc1ccc(Cl)cc1C(=O)Cl
Response line: 35 to 38 °C

Prompt line: Indicate its recorded melting point; the compound in question is CCOC(=O)c1cc(C)n(-c2cccc(S(C)(=O)=O)c2)c1-c1ccccc1
Response line: 131 to 133 °C

Prompt line: Indicate its recorded melting point; the compound in question is CC1CC=CCN1Cc1ccc(O)cc1 (stereo unspecified)
Response line: 109 to 112 °C

Prompt line: Indicate its recorded melting point; the compound in question is COc1ccc2c(CBr)c(F)ccc2c1C(F)(F)F
Response line: 97 to 100 °C

Prompt line: Indicate its recorded melting point; the compound in question is CCOC(=O)C=C(C)NC(=O)C(C)(C)CCl
Response line: 76 to 77.5 °C

Prompt line: Indicate its recorded melting point; the compound in question is CCOc1cccc(C(O)c2ncccc2OC)c1 (stereo unspecified)
Response line: 104 to 106 °C

Prompt line: Indicate its recorded melting point; the compound in question is COC(=O)CC1CC(c2ccc(C#N)cn2)=NO1 (stereo unspecified)
Response line: 97 to 98 °C

Prompt line: Indicate its recorded melting point; the compound in question is CCOc1ccc(C(=O)CCC(=O)Nc2sc(-c3ccccc3)nc2-c2ccccc2)cc1
Response line: 169 to 170 °C

Prompt line: Indicate its recorded melting point; the compound in question is CCNC(=O)NS(=O)(=O)c1cc2c(cc1OC)OCC(NC(=O)c1cc(Cl)ccc1OC)C2 (stereo unspecified)
Response line: 233 to 234 °C

Prompt line: Indicate its recorded melting point; the compound in question is O=C(O)CNC(=O)CN1CCCC1=O
Response line: 149 to 150 °C

Prompt line: Indicate its recorded melting point; the compound in question is O=C(/C=C/[C@@H]1[C@H]2CC(=O)O[C@H]2C[C@H]1OC(=O)c1ccccc1)COc1cccc(Cl)c1
Response line: 101 to 102 °C

Prompt line: Indicate its recorded melting point; the compound in question is CCN(CC)c1ccc2cc(C=CC(=O)c3c(N(CC)CC)c4ccccc4oc3=O)oc2c1
Response line: 169 to 171 °C

Prompt line: Indicate its recorded melting point; the compound in question is O=C(Cl)c1c(Br)c(Br)c([N+](=O)[O-])c2c1OCCO2
Response line: 215 °C

Prompt line: Indicate its recorded melting point; the compound in question is CN1CCN(c2cccc3c2C[C@H](NC(=O)c2ccc(C(F)(F)F)cc2)CC3)CC1
Response line: 203 to 204 °C

Prompt line: Indicate its recorded melting point; the compound in question is Clc1ccc2c(c1)C(c1ccccc1)=NCc1nnc(-c3ccccc3)n1-2
Response line: 194 °C

Prompt line: Indicate its recorded melting point; the compound in question is CNC(=O)C(Sc1nc2cc(Cl)ccc2s1)c1ccccc1 (stereo unspecified)
Response line: 170 to 171 °C

* * *

Entries and their melting point

compound=COCc1noc(-c2ncn3c2c(=O)n(C(C)C)c2ccccc23)n1 result="195 to 196 °C"
compound=CCC(CC)c1ccc(C#N)c2nc(Oc3ccc(Cl)cc3Br)n(C)c12 result="136 to 137 °C"
compound=CSc1nc(N)c(N)c(=O)n1C result="211 to 212 °C"
compound=Cc1ccc([N+](=O)[O-])c(C(=O)Nc2nnn[nH]2)c1 result="278 to 279 °C"
compound="O=C(Oc1ccccc1)N1Cc2ccccc2C2(Cc3ccccc3O2)C1 (stereo not given)" result="128 °C"

Prompt line: Indicate its recorded melting point; the compound in question is COc1cc2c(c3c1OC(C)(C)C3)C(C)=NC(C)(C)C2
Response line: 112 to 113 °C

Prompt line: Indicate its recorded melting point; the compound in question is Sc1nc2cc(N3CCNCC3)ccc2[nH]1
Response line: 260 to 261 °C

Prompt line: Indicate its recorded melting point; the compound in question is COc1ccc(-c2c(Cl)c(CN3C(=O)CCC3=O)nc3sc4c(c23)CCN(C(C)=O)C4)cc1
Response line: 266 to 267 °C

Prompt line: Indicate its recorded melting point; the compound in question is CC(=O)Oc1ccc2c3c(cc(Cl)c2c1)-c1cc(F)c(OC(C)=O)cc1CO3
Response line: 194 to 198 °C

Prompt line: Indicate its recorded melting point; the compound in question is CON(C(=O)c1cn(C)nc1C(F)F)C(CF)Cc1c(Cl)cc(Cl)cc1Cl (stereo not given)
Response line: 117 to 118 °C

Prompt line: Indicate its recorded melting point; the compound in question is COc1ccc2c(c1)CCC(=O)NC2c1ccccc1 (stereo not given)
Response line: 185 to 186 °C

Prompt line: Indicate its recorded melting point; the compound in question is COC(=O)c1nn(CCN(C)C)c2nc3cc(OC)ccc3cc12
Response line: 127 to 128 °C

Prompt line: Indicate its recorded melting point; the compound in question is CNC(=O)C1=CC(CF)(CF)Oc2cc(Cl)c(Cl)cc21
Response line: 141 to 142 °C

Prompt line: Indicate its recorded melting point; the compound in question is CCCCOc1nc2cc(C)nn2c2c1cnc1c2cnn1CC
Response line: 103 to 104 °C

Prompt line: Indicate its recorded melting point; the compound in question is Cc1oc(-c2ccccc2)nc1COc1nn(Cc2ccc(Oc3ccccc3)cc2)cc1/C=C/C(=O)O
Response line: 210 to 211 °C

Prompt line: Indicate its recorded melting point; the compound in question is COCC[C@H]1CN(C2=Nc3ccccc3Nc3ccc(C(F)(F)F)cc32)CCN1
Response line: 71 to 82 °C

Prompt line: Indicate its recorded melting point; the compound in question is O=c1[nH]c2ccc(C(F)(F)F)cc2c(-c2cc(Cl)ccc2O)c1NS(=O)(=O)c1ccccc1
Response line: 262 to 265 °C

Prompt line: Indicate its recorded melting point; the compound in question is CCC(Oc1ccc(C(C)(C)CC)cc1C(C)(C)CC)C(=O)Nc1cc(O)c(NC(=O)c2ccccc2)cc1Cl (stereo not given)
Response line: 190 to 191 °C

Prompt line: Indicate its recorded melting point; the compound in question is CCN=C1SC2CCOc3ccc([N+](=O)[O-])cc3C2(O)N1CC (stereo not given)
Response line: 125 to 127 °C

Prompt line: Indicate its recorded melting point; the compound in question is COc1ccc(C(=O)N[C@@H](Cc2c[nH]c3ccccc23)C(=O)O)cc1
Response line: 63 to 65 °C

* * *

READOUT TYPE: melting point

Example cases with answers are listed next.
compound="CN(C)C1(c2ccccc2)CCC(=CC(=O)NCCCCCc2c[nH]c3ccccc23)CC1 (stereo not given)" readout_type="melting point" result="68 to 72 °C"
compound=COc1ccc(C2=C(c3ccc(S(C)(=O)=O)cc3)CCC2)cc1Cl readout_type="melting point" result="118 to 120 °C"
compound="N=C(Nc1ccc(Cl)cc1)NC1CC2C3CC4C2C4C13 (stereo not given)" readout_type="melting point" result="170 to 171 °C"
compound=CCOC(=O)C1=C(NC(=O)Nc2ccc(Cl)c(C(=O)OCC)c2)CCCC1 readout_type="melting point" result="119 to 122 °C"
compound=CCCc1nc2c(N)nc3cc(C)ccc3c2s1 readout_type="melting point" result="186 to 187 °C"
compound="CC12CCC3c4ccc(O)cc4C(CC(=O)O)CC3C1CC(O)C2O (stereo not given)" readout_type="melting point" result="259 to 262 °C"

Prompt line: Indicate its recorded melting point; the compound in question is O=C(Cc1ccc(Cl)cc1)c1ccc(Cl)cc1Cl
Response line: 65 to 66 °C

Prompt line: Indicate its recorded melting point; the compound in question is CC(=NO)c1ccc2c(c1)oc1ccccc12
Response line: 132 to 135 °C

Prompt line: Indicate its recorded melting point; the compound in question is COc1ccc(C(=O)c2cc(OC)c(OC)c(OC)c2)cc1
Response line: 72 to 73 °C

Prompt line: Indicate its recorded melting point; the compound in question is CC(=O)c1cc(C(C)=O)c(OCCCCC#N)cc1O
Response line: 105 to 106 °C

Prompt line: Indicate its recorded melting point; the compound in question is O=C(O)C(F)(F)C(F)(F)C(F)(F)C(F)(F)C(F)(F)C(F)(F)C(=O)O
Response line: 142 to 144 °C

Prompt line: Indicate its recorded melting point; the compound in question is C=C(CCCl)C(=O)c1ccc(OC)c(Cl)c1Cl
Response line: 58 to 60 °C

* * *

Entries and their melting point

Example cases with answers are listed next.
compound=COc1ccc(/C(C)=C/c2ccc(CO)cc2)cc1C(C)(C)C readout_type="melting point" result="88 to 90 °C"
compound=CC1=NN=C(C=Cc2ccccc2F)c2cc3c(cc2C1)OCO3 readout_type="melting point" result="138 to 141 °C"
compound=Cn1c(-c2cccnc2)c(CCCCCC(=O)O)c2ccccc21 readout_type="melting point" result="117 to 120 °C"

Prompt line: Indicate its recorded melting point; the compound in question is COc1ccc(Cl)cc1C(=O)NCCc1ccc(CC2SC(=O)NC2=O)cc1 (stereo unspecified)
Response line: 182 °C

Prompt line: Indicate its recorded melting point; the compound in question is Cn1cc(-c2cc3cccnc3[nH]2)c2ccc(C(=O)NCCO)cc21
Response line: 264 to 267 °C

Prompt line: Indicate its recorded melting point; the compound in question is CCOC(=O)c1c(O)n(CC)c2cc(-c3ccncc3)ccc2c1=O
Response line: 153 to 157 °C

Where do these numbers come from? They come from a melting point compilation (Tetko et al.; mined from patent text by program, amines drawn as free bases though some values may be those of a salt).
